Biological target: T1, hnRNP H1 (recombinant) (UniProt P31943 1-449)
T1 sequence: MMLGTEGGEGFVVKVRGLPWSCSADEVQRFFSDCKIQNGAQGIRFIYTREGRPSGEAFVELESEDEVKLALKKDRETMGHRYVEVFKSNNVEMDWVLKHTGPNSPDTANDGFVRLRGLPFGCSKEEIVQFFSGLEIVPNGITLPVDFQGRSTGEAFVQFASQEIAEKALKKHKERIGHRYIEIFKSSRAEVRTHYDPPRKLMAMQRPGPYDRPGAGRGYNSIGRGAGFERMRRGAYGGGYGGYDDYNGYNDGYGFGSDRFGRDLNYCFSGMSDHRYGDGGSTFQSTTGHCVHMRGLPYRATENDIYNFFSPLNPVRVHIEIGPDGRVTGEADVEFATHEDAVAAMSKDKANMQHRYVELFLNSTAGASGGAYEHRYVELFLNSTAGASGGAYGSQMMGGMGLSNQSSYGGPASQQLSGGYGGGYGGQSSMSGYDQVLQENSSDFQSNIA
Assay: EMSA; 30 nM tRNA; EMSA: 50 mM Tris pH 8, 50 mM NaCl, 2 mM EDTA, 0.5% BSA, 0.2% CHAPS, 0.3 nM RNA, 30 nM tRNA, 0-640 nM H1, 30 min 37 C, native 6% PAGE. UV crosslinking: ~1 nM RNA in U87 nuclear extract
Details: protein: recombinant; (pRSET-C vector, Ni-NTA); label: 32P; G-quadruplex destabilized
quantity: Kd (nM)

[[record]]
binder = "GGGGCCGGGGCCGGGGCCGGGGCC (ssRNA, all G replaced by 7-deaza-G (transcribed with 7-deaza-GTP)) [4R-7dG]"
quantity = "Kd"
reported_result = 13.5

